target.entity: T1, biotinylated V112E-PNT domain (ETV6 residues 43-135, V112E, with Avitag) (human, UniProt P41212 43-135, V112E, biotin on the Avitag (~50 to 95% biotinylated))
T1 construct: ETV6, human, residues 43-135 of V112E ETV6; also called biotinylated V112E-PNT domain ligand; V112E-PNT domain ligand; source: E. coli BL21 (λDE3) co-transformed with pET21a-BirA, purified (Ni-NTA, thrombin cleavage); not shown: His6, N-terminal, cleaved; Avitag, N-terminal, kept
T1 sequence (looked up): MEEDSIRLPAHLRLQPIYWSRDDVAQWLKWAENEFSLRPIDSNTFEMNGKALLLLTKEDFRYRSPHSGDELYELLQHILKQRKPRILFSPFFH
assay.explanation: SPR; biotinylated V112E-PNT domain ligand captured on streptavidin Sensor Chip SA, PNT domain analytes flowed; Biacore X100, 25 °C, HBS-EP+ (10 mM HEPES, 150 mM NaCl, 3 mM EDTA, 0.05% v/v Tween-20, pH 7.4); analyte 0.2-60 nM, re-run at 20-6000 nM if KD > 60 nM
condition.details: both partners purified
The threshold is 300000 M⁻¹ s⁻¹. Values of kon beneath it are tagged Yes; values meeting or exceeding it are tagged No.

>  <binder>
Y114A-A93D-PNT domain (domain or fragment, human, UniProt P41212 40-125, looked up, ETV6 PNT domain, human; source: E. coli BL21 (λDE3), purified (Ni-NTA, thrombin cleavage); not shown: His6, N-terminal, cleaved) ALRMEEDSIRLPAHLRLQPIYWSRDDVAQWLKWAENEFSLRPIDSNTFEMNGKDLLLLTKEDFRYRSPHSGDVLAELLQHILKQRK

>  <assigned.class>
Yes

$$$$
>  <binder>
P107A-A93D-PNT domain (domain or fragment, human, UniProt P41212 40-125, looked up, ETV6 PNT domain, human; source: E. coli BL21 (λDE3), purified (Ni-NTA, thrombin cleavage); not shown: His6, N-terminal, cleaved) ALRMEEDSIRLPAHLRLQPIYWSRDDVAQWLKWAENEFSLRPIDSNTFEMNGKDLLLLTKEDFRYRSAHSGDVLYELLQHILKQRK

>  <assigned.class>
Yes

$$$$
>  <binder>
K99A-A93D-PNT domain (domain or fragment, human, UniProt P41212 40-125, looked up, ETV6 PNT domain, human; source: E. coli BL21 (λDE3), purified (Ni-NTA, thrombin cleavage); not shown: His6, N-terminal, cleaved) ALRMEEDSIRLPAHLRLQPIYWSRDDVAQWLKWAENEFSLRPIDSNTFEMNGKDLLLLTAEDFRYRSPHSGDVLYELLQHILKQRK

>  <assigned.class>
Yes

$$$$
>  <binder>
E100A-A93D-PNT domain (domain or fragment, human, UniProt P41212 40-125, looked up, ETV6 PNT domain, human; source: E. coli BL21 (λDE3), purified (Ni-NTA, thrombin cleavage); not shown: His6, N-terminal, cleaved) ALRMEEDSIRLPAHLRLQPIYWSRDDVAQWLKWAENEFSLRPIDSNTFEMNGKDLLLLTKADFRYRSPHSGDVLYELLQHILKQRK

>  <assigned.class>
No

$$$$
>  <binder>
L79A-A93D-PNT domain (domain or fragment, human, UniProt P41212 40-125, looked up, ETV6 PNT domain, human; source: E. coli BL21 (λDE3), purified (Ni-NTA, thrombin cleavage); not shown: His6, N-terminal, cleaved) ALRMEEDSIRLPAHLRLQPIYWSRDDVAQWLKWAENEFSARPIDSNTFEMNGKDLLLLTKEDFRYRSPHSGDVLYELLQHILKQRK

>  <assigned.class>
Yes

$$$$
